Experiment: Evaluation of solubility in 50 mM phosphate buffer (PPB, pH 6.5)
Format: physicochemical
Settings: 50 mM phosphate buffer pH 6.5, 37° C., 1 atm, 22 to 24 hours; read-out: PPB solubility
Protocol: To an excessive amount of a lyophilized powder of the compound, 50 mM phosphate buffer (PPB, pH 6.5) is added, and after shaking (37° C., 1 atm, 1800 rpm, for 22 to 24 hours), the mixture is filtered with a filter, and the compound concentration of the filtrate is measured by LC/MS/MS. Solubility (g/mL) is calculated from the measured compound concentration. Solubility (μg/mL) was calculated from the measured compound concentration.
Each entry below lists one item and its recorded solubility value.
// units = µg/mL; emit number, no label

See these solved cases before continuing.
CC[C@H](C)[C@@H]1NC(=O)[C@H](CC(C)C)N(C)C(=O)CC(C(=O)N2CCOCC2)N(C)C(=O)[C@H](C2CCCC2)N(C)C(=O)C2(CCCC2)NC(=O)[C@@H]2CCCN2C(=O)[C@H](CCc2ccc(C(F)(F)F)c(Cl)c2)NC(=O)CN(C)C(=O)[C@H](CC2CCCCC2)N(C)C(=O)[C@@H]2CCN2C(=O)[C@H](C)N(C)C1=O (single isomer, unassigned) | 1.18
CC[C@H](C)[C@@H]1NC(=O)C(CC(C)C)N(C)C(=O)CC(C(=O)N(C)C)N(C)C(=O)[C@H](C2CCCC2)N(C)C(=O)C(C)NC(=O)C(C)N(C)C(=O)[C@H](CCc2ccc(C(F)(F)F)c(Cl)c2)NC(=O)CN(C)C(=O)[C@H](CC2CCCCC2)N(C)C(=O)[C@@H]2CCN2C(=O)[C@H](C)N(C)C1=O (single isomer, unassigned) | 9.18

Switching to the query record.
Lookup: Which solubility value belongs to CC[C@@H](C)[C@H]1NC(=O)[C@@H](Cc2ccccc2)N(C)C(=O)CN(C)C(=O)C[C@@H](C(=O)N2CCCCC2)NC(=O)[C@@H](CC(C)C)N(C)C(=O)[C@@H](COC(C)(C)C)NC(=O)[C@@H](CC(C)C)N(C)C(=O)[C@@H](CCc2ccccc2)N(C)C(=O)CN(C)C(=O)[C@@H]([C@H](C)O)NC(=O)[C@@H](CC(C)C)N(C)C1=O (stereo in doubt) ?
Found: 5.76

* * *

Assay: Evaluation of solubility in 50 mM phosphate buffer (PPB, pH 6.5)
Assay type: physicochemical
Conditions: 50 mM phosphate buffer pH 6.5, 37° C., 1 atm, 22 to 24 hours; read-out: PPB solubility
Bridge positions count the residues as written; N and C are the ends. Square brackets hold non-standard residues; d marks the D form. Peptide text beside a SMILES is read from it. * marks the point of attachment. ξ: configuration not given here. hPhe(3-Cl-4-CF3) = N[C@@H](CCc1ccc(C(F)(F)F)c(Cl)c1)C(=O)O; NMeCha = CN[C@@H](CC1CCCCC1)C(=O)O; NMeChg = CN[C@H](C(=O)O)C1CCCCC1; dNMeD = CN[C@H](CC(=O)O)C(=O)O; dNMeL = CN[C@H](CC(C)C)C(=O)O; ξIle = CC[C@H](C)C(N)C(=O)O; Piperidide = C1CCN(*)CC1; Ac5c = NC1(C(=O)O)CCCC1; Sar = CNCC(=O)O
Each entry below lists one item and its recorded solubility value.
// units = µg/mL; emit number, no label

See these solved cases before continuing.
CC[C@H](C)[C@@H]1NC(=O)[C@H](CC(C)C)N(C)C(=O)CC(C(=O)N2CCCCC2)N(C)C(=O)[C@H](C2CCCC2)N(C)C(=O)C2(CCCC2)NC(=O)[C@@H]2CCCN2C(=O)[C@H](CCc2ccc(C(F)(F)F)c(Cl)c2)NC(=O)CN(C)C(=O)[C@H](CC2CCCCC2)N(C)C(=O)[C@@H]2CCN2C(=O)[C@H](C)N(C)C1=O (single isomer, unassigned) | 1.13
CC[C@H](C)[C@@H]1NC(=O)[C@H](CC(C)C)N(C)C(=O)CC(C(=O)N2CCOCC2)N(C)C(=O)[C@H](C2CCCC2)N(C)C(=O)C2(CCCC2)NC(=O)[C@@H]2CCCN2C(=O)[C@H](CCc2ccc(C(F)(F)F)c(Cl)c2)NC(=O)CN(C)C(=O)[C@H](C2CCCC2)N(C)C(=O)[C@@H]2CCN2C(=O)[C@H](C)NC1=O (single isomer, unassigned) | 101

Switching to the query record.
Lookup: Which solubility value belongs to CC[C@H](C)C1NC(=O)[C@@H](CC(C)C)N(C)C(=O)C[C@H](C(=O)N2CCCCC2)N(C)C(=O)[C@H](C2CCCCC2)N(C)C(=O)C2(CCCC2)NC(=O)[C@@H]2CCCN2C(=O)[C@H](CCc2ccc(C(F)(F)F)c(Cl)c2)NC(=O)CN(C)C(=O)[C@H](CC2CCCCC2)N(C)C(=O)CN(C)C(=O)CN(C)C1=O (stereo partly drawn) [Compound 1] ([dNMeL][ξIle][Sar][Sar][NMeCha][Sar][hPhe(3-Cl-4-CF3)]P[Ac5c][NMeChg][dNMeD]-Piperidide; lactam N-11) ?
Found: 1.12
